system tested: Xanthine dehydrogenase/oxidase (Homo sapiens, UniProt P47989)
Sequence (P47989 whole entry): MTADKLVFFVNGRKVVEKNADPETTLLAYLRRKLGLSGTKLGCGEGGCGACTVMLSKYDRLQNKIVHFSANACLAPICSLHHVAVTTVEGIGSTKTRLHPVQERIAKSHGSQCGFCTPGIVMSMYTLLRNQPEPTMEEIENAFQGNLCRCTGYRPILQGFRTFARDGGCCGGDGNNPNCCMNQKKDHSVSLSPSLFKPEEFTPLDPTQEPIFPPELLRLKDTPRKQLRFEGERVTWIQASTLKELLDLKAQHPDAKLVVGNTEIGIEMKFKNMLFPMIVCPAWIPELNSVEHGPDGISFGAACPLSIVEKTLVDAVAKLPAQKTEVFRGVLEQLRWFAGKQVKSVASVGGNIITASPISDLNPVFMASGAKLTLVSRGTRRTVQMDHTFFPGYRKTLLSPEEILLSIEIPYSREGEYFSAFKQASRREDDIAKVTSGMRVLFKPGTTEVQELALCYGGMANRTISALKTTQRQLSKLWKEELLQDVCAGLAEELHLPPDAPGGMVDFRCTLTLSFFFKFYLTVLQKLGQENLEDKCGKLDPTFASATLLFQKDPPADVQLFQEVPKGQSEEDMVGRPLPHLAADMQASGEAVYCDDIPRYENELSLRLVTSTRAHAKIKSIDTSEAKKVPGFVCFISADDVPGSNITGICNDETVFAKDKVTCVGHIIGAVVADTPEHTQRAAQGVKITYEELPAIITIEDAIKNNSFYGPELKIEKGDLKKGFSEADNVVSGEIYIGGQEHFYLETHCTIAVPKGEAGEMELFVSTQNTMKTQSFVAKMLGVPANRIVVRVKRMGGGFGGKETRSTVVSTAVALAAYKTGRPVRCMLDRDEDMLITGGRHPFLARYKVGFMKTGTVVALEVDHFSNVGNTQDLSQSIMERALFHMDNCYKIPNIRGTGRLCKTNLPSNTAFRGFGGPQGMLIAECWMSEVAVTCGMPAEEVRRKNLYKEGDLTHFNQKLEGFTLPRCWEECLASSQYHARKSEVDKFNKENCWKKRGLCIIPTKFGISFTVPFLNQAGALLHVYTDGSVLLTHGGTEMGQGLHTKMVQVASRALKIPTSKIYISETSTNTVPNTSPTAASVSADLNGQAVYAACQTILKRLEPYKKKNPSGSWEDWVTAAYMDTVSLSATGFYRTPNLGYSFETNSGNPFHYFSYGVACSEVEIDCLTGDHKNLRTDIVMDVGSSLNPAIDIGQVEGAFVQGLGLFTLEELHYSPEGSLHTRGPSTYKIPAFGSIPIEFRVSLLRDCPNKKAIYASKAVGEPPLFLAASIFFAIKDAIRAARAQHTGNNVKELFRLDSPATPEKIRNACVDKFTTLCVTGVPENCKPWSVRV
method description: Inhibition of xanthine oxidase (unknown origin) assessed as reduction in uric acid formation using xanthine as substrate after 10 mins
endpoint label: pIC50
// returns pIC50 (minus log10 of molar concentration), number only

Which value of pIC50 has been reported for O=C1CC(c2ccc(O)c(-c3c(O)cc(O)c4c3OC(c3ccc(O)cc3)CC4=O)c2)Oc2cc(O)cc(O)c21 (stereo unspecified) in the records?
7.04

---

system tested: Xanthine dehydrogenase/oxidase (Bos taurus, UniProt P80457)
Sequence (P80457 whole entry): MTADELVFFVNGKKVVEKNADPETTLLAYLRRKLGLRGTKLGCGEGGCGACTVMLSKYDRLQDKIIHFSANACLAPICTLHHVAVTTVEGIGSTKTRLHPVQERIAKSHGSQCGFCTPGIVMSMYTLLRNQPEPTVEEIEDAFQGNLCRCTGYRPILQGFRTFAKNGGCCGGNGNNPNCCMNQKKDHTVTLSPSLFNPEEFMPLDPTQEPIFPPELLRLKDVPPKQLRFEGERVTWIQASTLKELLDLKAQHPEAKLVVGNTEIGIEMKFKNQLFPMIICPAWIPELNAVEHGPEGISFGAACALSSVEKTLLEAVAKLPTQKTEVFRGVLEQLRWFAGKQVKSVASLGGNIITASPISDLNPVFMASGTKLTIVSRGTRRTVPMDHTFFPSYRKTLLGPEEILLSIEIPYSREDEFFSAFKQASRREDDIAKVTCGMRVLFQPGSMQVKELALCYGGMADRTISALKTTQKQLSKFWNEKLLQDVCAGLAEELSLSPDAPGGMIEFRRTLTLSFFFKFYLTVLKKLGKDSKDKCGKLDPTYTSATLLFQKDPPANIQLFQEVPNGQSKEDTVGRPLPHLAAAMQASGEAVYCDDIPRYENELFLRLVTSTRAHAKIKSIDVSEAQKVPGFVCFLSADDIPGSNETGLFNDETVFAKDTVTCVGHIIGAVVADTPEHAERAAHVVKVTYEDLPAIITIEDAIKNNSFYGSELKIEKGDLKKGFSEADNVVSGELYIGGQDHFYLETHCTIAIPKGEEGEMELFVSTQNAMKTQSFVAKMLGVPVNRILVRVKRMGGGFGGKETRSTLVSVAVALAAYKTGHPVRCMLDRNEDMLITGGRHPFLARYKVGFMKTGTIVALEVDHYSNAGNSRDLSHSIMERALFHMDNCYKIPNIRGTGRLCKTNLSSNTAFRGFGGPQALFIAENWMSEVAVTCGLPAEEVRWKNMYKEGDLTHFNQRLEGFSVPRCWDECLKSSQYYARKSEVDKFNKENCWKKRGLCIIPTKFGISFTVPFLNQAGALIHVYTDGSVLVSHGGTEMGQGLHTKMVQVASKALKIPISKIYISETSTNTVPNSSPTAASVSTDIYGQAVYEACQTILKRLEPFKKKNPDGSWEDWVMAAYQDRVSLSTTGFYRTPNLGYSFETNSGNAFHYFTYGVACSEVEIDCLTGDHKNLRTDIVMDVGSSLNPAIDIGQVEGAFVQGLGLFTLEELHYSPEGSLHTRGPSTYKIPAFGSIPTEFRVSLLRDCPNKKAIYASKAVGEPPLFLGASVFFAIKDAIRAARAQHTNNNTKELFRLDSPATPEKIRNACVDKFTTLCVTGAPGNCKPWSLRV
method description: Potency index, ratio of allopurinol IC50 to compound IC50 for bovine milk xanthine oxidase
measurement conditions: cattle
Ratio IC50 values, listed per item
Field format: numeric only.

Would you please look over these solved cases?
O=c1cc(-c2ccccc2)oc2cc(O)c(O)c(O)c12    3.61
Oc1nc(-c2ccccc2)cc(-c2ccccc2)n1    1.2
O=c1cc(-c2ccc(O)c(O)c2)oc2cc(O)cc(O)c12    25.32
O=c1nc(-c2ccncc2)cc(-c2cccc3ccccc23)[nH]1    1.09

Which value of Ratio IC50 has been reported for `O=c1cc(-c2cccnc2)[nH]c2ccccc12` in the records?
1.33

Which value of Ratio IC50 has been reported for `O=c1cc(-c2ccccc2)oc2cc(O)cc(O)c12` in the records?
2.33

The origin of these recorded values is ChEMBL document CHEMBL4052641.
